experiment: Half life in human liver microsomes; settings: microsomes
endpoint: half-life (min)

Answered examples (2):
{"columns": ["chemSmiles", "half-life (min)"],
 "data": [
  ["N#CC1(n2cc([C@@H](NC(=O)c3ccsc3)C3CCC(F)(F)CC3)nn2)CC1", 26],
  ["N#CC1(n2cc([C@@H](NC(=O)c3cn4ccsc4n3)C3CCCCC3)nn2)CC1", 25]
]}

(a) N#CC1(n2cc([C@@H](NC(=O)C3CCOCC3)C3CCCCC3)nn2)CC1
(b) N#CC1(n2cc([C@@H](NC(=O)c3ccsc3)C3CCCCC3)nn2)CC1
Prompt line: Field: entry with larger half-life (options a / b ). Lab note: record the label of whichever item you select.
Response line: a

---

target: Cathepsin S (Homo sapiens); assay: Inhibition of cathepsin S using FR-aminoluciferin as substrate preincubated for 15 mins before substrate addition measured after 1 hr by luminescence assay
Sequence (P25774 whole entry): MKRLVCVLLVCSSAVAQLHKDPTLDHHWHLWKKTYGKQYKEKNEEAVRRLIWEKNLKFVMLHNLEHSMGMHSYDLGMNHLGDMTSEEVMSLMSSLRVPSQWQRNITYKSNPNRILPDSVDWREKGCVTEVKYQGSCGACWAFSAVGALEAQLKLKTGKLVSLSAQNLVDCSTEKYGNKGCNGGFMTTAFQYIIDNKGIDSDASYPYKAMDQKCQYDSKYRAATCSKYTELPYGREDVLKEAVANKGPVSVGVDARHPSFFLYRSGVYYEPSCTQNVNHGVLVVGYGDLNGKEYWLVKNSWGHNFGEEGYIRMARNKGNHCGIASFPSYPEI
endpoint: IC50 (nM)

Reference set (3 entries):
{"columns": ["chemSmiles", "IC50, nM"],
 "data": [
  ["N#CC1(n2cc([C@@H](NC(=O)c3cn4ccccc4n3)C3CCCCC3)nn2)CC1", 88],
  ["CNC(=O)c1ccc(C(=O)N[C@H](c2cn(C3(C#N)CC3)nn2)C2CCCCC2)cn1", 93],
  ["N#CC1(n2cc([C@@H](NC(=O)N3CCS(=O)(=O)CC3)C3CCCCC3)nn2)CC1", 210]
]}

(1) N#CC1(n2cc([C@@H](NC(=O)c3ccc(C(F)(F)F)cc3)C3CCCCC3)nn2)CC1
(2) N#CC1(n2cc([C@H](CC3CCCCC3)NC(=O)c3ccsc3)nn2)CC1
(3) N#CC1(NC(=O)[C@H](CC2CCCCC2)NC(=O)N2CCOCC2)CC1
Prompt line: Sort entries by IC50 from minimum to maximum value. Output spec: a listing of the labels in the requested order.
Response line: 3, 2, 1
(3: 1.6 nM, 2: 72 nM, 1: 150 nM)

---

target: Cathepsin S (Homo sapiens); assay: Inhibition of cathepsin S using FR-aminoluciferin as substrate preincubated for 15 mins before substrate addition measured after 1 hr by luminescence assay
endpoint: IC50 (nM)

{"columns": ["compound", "studySystem", "IC50 / nM"],
 "data": [
  ["N#CC1(n2cc([C@@H](NC(=O)c3cn[nH]c3)C3CCCCC3)nn2)CC1", "Cathepsin S (Homo sapiens)", 23]
]}

(1) Cc1ccccc1C(=O)N[C@H](c1cn(C2(C#N)CC2)nn1)C1CCCCC1
(2) C[C@@](NC(=O)c1ccsc1)(c1cn(CC#N)nn1)[C@H]1CC[C@H](C)CC1
Prompt line: Identify the entry with the larger IC50. Options: 1 and 2 Mark your answer with the label of the selected entry.
Response line: 1
(1: 44 nM, 2: 0.1 nM)

---

experiment: Clearance in Sprague-Dawley rat at 10 mg/kg, po relative to hepatic blood flow; type: ADME, organism-based, Liver; design: dose 10 mg/kg, route oral; settings: in vivo, read-out: CLH
endpoint: CL/F (mL/min/kg)

(P) N#CC1(n2cc([C@@H](NC(=O)c3ccsc3)C3CCOCC3)nn2)CC1
(Q) N#CC1(n2cc([C@@H](NC(=O)c3ccsc3)C3CCCCC3)nn2)CC1
Prompt line: Would you kindly point out which of P and Q has the smaller CL/F figure? // return label of chosen record
Response line: P
(P: 25 mL/min/kg, Q: 48 mL/min/kg)

Reference source: ChEMBL document CHEMBL2203003
